- targetOrTestSystem: Torsin-1A-interacting protein 2 (Homo sapiens)
- assay: LULL1 binders on small-molecule microarray, primary screen, cell lysate, human LULL1 lysate, 635/667 nm fluorescence (AID 1092);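 note: probe is lysate of COS7 cells overexpressing human LULL1; score merges per-feature 667 nm fluorescence with signal-to-noise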
- assaySetup: hLULL1 lysate binding, 635 nm fluorescence, higher = more signal
measuredEndpoint: composite z-score

C=C(COC)/C(=C/C[C@@H](OC(=O)c1ccncc1)c1ccc(CO)o1)c1cnc2ccccc2c1; 1.59
COC(=O)[C@H](Cc1ccccc1)N1CC(/C=C/C2CC2)=C[C@@H]1[C@@H](O)Cc1ccccc1; 1.66
C[C@H]1ON(c2ccc(C(=O)OC(C)(C)C)cc2)[C@@H](c2ccc(O)cc2)[C@@H]1C(=O)N1C(=O)OC[C@@H]1c1ccccc1; 1.69
COc1ccccc1CN1C(=O)c2ccccc2[C@@H](C(=O)NC(C)C)[C@@H]1c1ccc(CO)cc1; 2.36

====

- targetOrTestSystem: Torsin-1A (Homo sapiens) (UniProt O14656)
- Sequence (O14656 whole entry, looked up): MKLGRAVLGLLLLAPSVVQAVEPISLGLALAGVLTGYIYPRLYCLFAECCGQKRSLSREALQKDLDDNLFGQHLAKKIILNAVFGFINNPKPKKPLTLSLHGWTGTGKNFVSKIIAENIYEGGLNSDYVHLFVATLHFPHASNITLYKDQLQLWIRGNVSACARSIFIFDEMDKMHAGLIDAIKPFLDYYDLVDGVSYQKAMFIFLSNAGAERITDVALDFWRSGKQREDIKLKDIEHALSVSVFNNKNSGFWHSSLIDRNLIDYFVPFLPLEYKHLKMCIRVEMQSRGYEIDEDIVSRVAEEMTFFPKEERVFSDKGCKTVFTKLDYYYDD
- assay: torsin A binders from cell lysate, primary screen, small-molecule microarray, wild-type, 635/667 nm (AID 1149)
- assaySetup: COS7 hTOR1A-WT lysate, 635 nm fluorescence, higher = more signal
Reported values of composite z-score for individual entries
measuredEndpoint: composite z-score

COc1ccc([Si](C)(C)[C@H]2[C@H](CC(=O)N3Cc4ccccc4C[C@H]3CO)O[C@@]3(C(=O)N(Cc4cccc(N5CCCCC5=O)c4)c4ccccc43)[C@@H]2C)cc1; 0.849
C=CCOC(=O)[C@H]1[C@@H]2C(=O)O[C@@H](c3ccccc3)[C@@H](c3ccccc3)N2[C@@H](c2ccc(OCCOC(=O)[C@H]3C[C@H]4C(=O)N[C@@H](CCCC[N+](C)(C)C)C(=O)N4[C@H]3c3cccc(OCCO)c3)cc2)[C@]12C(=O)Nc1ccc(I)cc12; 0.485
O=C(CCCCCCC(=O)Nc1ccccc1)N/N=C/c1ccccc1; 0.577
COc1cc(CO)cc(I)c1O[C@H]1C=C(C(=O)NCCO)C[C@@H](N(CC2CCCCC2)C(=O)c2ccc(C(F)(F)F)cc2)[C@@H]1O; 0.0494
O=C1O[C@@H](c2ccccc2)[C@@H](c2ccccc2)N2[C@@H](c3ccccc3OCCO)[C@]3(C(=O)Nc4ccc(C#CCCO)cc43)[C@@H](C(=O)N3CCN(c4ncccn4)CC3)[C@H]12; -0.566
[N-]=[N+]=NCc1ccccc1C[C@@]1(C(=O)N2CCCCC2)N=C(c2ccc(OCCCO)cc2)O[C@@H]1c1ccccc1N=[N+]=[N-]; 0.704
C=CCN1C(=O)[C@@]2(CCC(=O)OC(C)(C)C)N=C(c3ccc(OCCCO)cc3)O[C@H]2c2ccccc21; -0.0862
C=CC[C@]1(C(=O)N(C)C)N=C(c2ccc(OCCCO)cc2)O[C@H]1c1ccccc1N=[N+]=[N-]; 0.73
C=C(CCCC)C(=O)CC[C@@H](OC(=O)c1ccccc1-c1ccccc1C(=O)O)c1cccc(OCCO)c1; 0.604
O=C(CS)NCCCCCCNC(=O)[C@@H]1C[C@@H]2C(=O)N3CCC[C@H]3C(=O)N2[C@@H]1c1cccc(OCCO)c1; 1.19
CC(C)C(=C=CC[C@H](O)c1ccc(OCCO)cc1)C[C@H](O)c1cc(Cl)cc(Cl)c1O; 0.895
[N-]=[N+]=Nc1ccccc1[C@H]1OC(c2ccc(OCCCO)cc2)=N[C@@]1(CCS(=O)(=O)c1ccccc1)C(=O)N1CCCCC1; 0.456
CC(C)CNC(=O)[C@@H]1c2ccccc2C(=O)N(Cc2cc(F)cc(C(F)(F)F)c2)[C@H]1c1ccc(CO)cc1; 0.71
COCCOC(=O)N1C(=O)[C@@]2(c3cc(C#CC4(O)CCCCCC4)ccc31)[C@H](C(=O)N1CCCCCCC1)[C@H]1C(=O)O[C@H](c3ccccc3)[C@H](c3ccccc3)N1[C@@H]2c1ccc(OCCO)cc1; 1.25
